assay: human hepatoma cell viability loss – ATP luminescence, cytotoxicity control for P. falciparum antimalarial project, primary screen (AID 2303); conditions: HepG2 viability, 24-48 h, at 10 µM;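 further: 0% = DMSO wells and 100% = digitonin-killed cells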
Activity calls are given as the source filed them.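 How the source made its calls: active means inhibition above 50%; inactive means the rest.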
Permitted responses: 1 = active, 0 = inactive

O[C@H]1[C@H](OCc2ccc(-c3ccccc3)cc2)CC[C@@H]1N1CCCCC1: 0
Cc1cccc2[nH]c(-c3cccc(-c4cccc(NC(=O)c5csnn5)c4)c3)nc12: 0

Query: Per the assay record, what outcome was assigned to `COc1ccc(Cn2c(Nc3cccc(C(F)(F)F)c3)nc3cc(C(=O)NC(C)C)cnc32)cc1Cl` ?
Response: 0

Query: Per the assay record, what outcome was assigned to CC(Oc1cccc(Cl)c1)C(=O)N1CCc2ccccc21 (stereo unspecified) ?
Response: 0

Query: Per the assay record, what outcome was assigned to `O=[N+]([O-])c1cccc(C=NNc2ccnc3ccc(C(F)(F)F)cc23)c1` ?
Response: 0

Query: Per the assay record, what outcome was assigned to `CCN(CC)CCOc1ccc(NC(=O)c2oc3ccccc3c2C=Cc2ccccc2)cc1` ?
Response: 1

Query: Per the assay record, what outcome was assigned to O=C(/C=C/c1ccc(Cl)cc1)NCCCCCN1CCCC(C(=O)Nc2ccc(F)c(Cl)c2)C1 (stereo unspecified) ?
Response: 0

Query: Per the assay record, what outcome was assigned to `c1cc(CNCCN2CCNCC2)cc(-c2ccc(-c3nc4ccccc4[nH]3)cc2)c1` ?
Response: 0

* * *

Listed below: inhibition values for each entry.
molecular target: L-lactate dehydrogenase (Plasmodium falciparum (isolate CDC / Honduras)); experiment: PfLDH activity inhibition – cell lysate, 3D7 strain, counter-screen for P. falciparum growth inhibition project (AID 2304);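 further: 0% = vehicle and 100% = reference inhibitor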; details: P. falciparum 3D7 crude extract, LDH APAD/NBT absorbance; at 2 µM; active compounds read high
Answer with a number only, understood to be in %.

The cases that follow already have their inhibition on record.
CC(C)C(C(=O)Nc1ccc2c(c1)OCO2)c1ccc(Cl)cc1 (centres undefined): -7
Cc1ccccc1CN1CCCN(Cc2ccc(C(=O)Nc3ccc(C(C)(C)C)cc3)cc2)CC1: -1
O=C(Nc1ccc(Cn2nc(Cl)c(N3CCCNCC3)cc2=O)cc1)c1ccc(-c2ccccc2)cc1: 0
CCCCc1ccc(C(=O)Nc2ccc3nc(N4CCN(C)CC4)cc(C)c3c2)cc1: -6
O=C(Nc1cccc(CN2CCCN(Cc3ccc(O)cc3)CC2)c1)c1cc2ccccc2s1: -7

Query: For the molecule shown here, CCCC(C)Nc1nc(C)cc(NCCC(=O)Nc2ccc(OC)cc2)n1 (centres undefined) , give the reported inhibition.
Response: -1

Query: For the molecule shown here, `COc1ccc(CNc2ncc(-c3ccsc3)c(-c3nccs3)n2)cc1OC` , give the reported inhibition.
Response: -1

Query: For the molecule shown here, `COc1ccc(-c2ccc(CNC(=O)c3ccc(C#N)cc3)c(F)c2)cc1CN1CCCN(C)CC1` , give the reported inhibition.
Response: -10

* * *

assay: antimalarial activity against Dd2 strain (AID 2302);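 further: 0% = DMSO untreated growth and 100% = chloroquine plus artemisinin killed control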; settings: P. falciparum Dd2 in RBCs, LDH growth readout, 72 h; at 2 µM
Active and inactive are the calls of the source.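 The calls were made as follows: active = growth inhibition above 50% at the single 2 µM test dose, taken to imply half-maximal potency below 2 µM; inactive = the rest.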
Permitted responses: 1 for active, -1 for inactive

Here are 5 compounds together with their reported answers.
CNCCNCc1cccc(-c2ccc(-c3nc4ccccc4[nH]3)s2)c1: -1
COCCN1CCN(Cc2ccc(-c3ccc(-c4nc5ccc(F)cc5[nH]4)cc3)cc2)CC1: 1
COc1ccc(Nc2ncc3c(-c4ccc(NC(=O)c5cccc(C(F)(F)F)c5)cc4)c[nH]c3n2)cc1OC: -1
O=C(NCC1CCC(CNCCCc2ccccc2)CC1)c1cc(Cl)cc(Cl)c1 (stereo not given): -1
Nc1nc(N)c2c(ccc3nn(C4CCCC4)cc32)n1: -1

Query: Per the assay record, what outcome was assigned to `CC1CCN(Cc2ccc(NC(=O)c3cc4ccc5cccnc5c4[nH]3)cc2)CC1` ?
Response: 1

Query: Per the assay record, what outcome was assigned to `NC(N)=NC(=O)Nc1cc(Br)c(Cl)c(Br)c1` ?
Response: 1

Query: Per the assay record, what outcome was assigned to Cc1ccc(NC(=O)NC2CCN(CCC(NC(=O)Cc3ccccc3)c3ccc(Cl)c(Cl)c3)CC2)cc1 (stereo not given) ?
Response: -1

Query: Per the assay record, what outcome was assigned to CCN1CCCC(CNC(=O)/C(=C/C=C/c2cc3cc(Cl)c(Cl)cc3[nH]2)OC)C1 (stereo not given) ?
Response: 1

Query: Per the assay record, what outcome was assigned to `COc1ccc(-c2cc3ncn(CC(=O)N4CCN(c5cccc(OC)c5)CC4)c(=O)c3s2)cc1` ?
Response: -1

* * *

Listed below: growth inhibition values for each entry.
test: inhibition of 3D7 malaria parasite growth – strain 3D7 (AID 2306);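 further: 0% = DMSO wells and 100% = chloroquine plus artemisinin control wells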; details: P. falciparum 3D7 erythrocytic growth, LDH absorbance, 72 h; at 2 µM; active compounds read high
Answer with a number only, understood to be in %.

The cases that follow already have their growth inhibition on record.
OC(CNc1ccnc(Nc2cccc(OCCCN3CCOCC3)c2)n1)c1ccccc1 (stereo not given): 97
CC(C)(C)c1ccc(S(=O)(=O)Nc2ccccc2N2CCOCC2)cc1: 90
O=C(Nc1cccc(-c2cccc(-c3ccc(F)cc3)n2)c1)c1ccc([N+](=O)[O-])o1: 99
N#Cc1ccc(N[C@@H](CC2CCCCC2)C(=O)N[C@@H]2CCCc3ccccc32)c2ccccc12: 99

Next, consider the following molecule.
Query: For the molecule shown here, O=C(c1ccc(Cl)cc1)N1CCCC(C(=O)N(Cc2nnc(-c3ccccc3Cl)o2)C2CC2)C1 (stereo not given) , give the reported growth inhibition.
Response: 95

* * *

assay: antimalarial activity against Dd2 strain (AID 2302);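 further: 0% = DMSO untreated growth and 100% = chloroquine plus artemisinin killed control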; conditions: P. falciparum Dd2 in RBCs, LDH growth readout, 72 h; at 2 µM
The source made the active and inactive calls.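 The calls were made as follows: active = growth inhibition above 50% at the single 2 µM test dose, taken to imply half-maximal potency below 2 µM; inactive = the rest.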
Permitted responses: true (1) (active), false (0) (inactive)

Cc1nn(C)c(C)c1CN(Cc1nc(-c2cccc(Oc3ccccc3)c2)oc1C)C1CC1: true (1)
O=C(Nc1cccc(-c2ccc(-c3nc4ccc(C(F)(F)F)cc4[nH]3)cc2)c1)c1cnc[nH]1: false (0)
O=C(Nc1cc(C(F)(F)F)ccc1-n1cncn1)C1(c2ccccc2)CC1: true (1)
CN(C)c1cc(C(=O)N[C@@H](Cc2ccccc2)[C@H](O)CNC2CCCCC2)cc2[nH]ccc12: true (1)
CC1(C)N=C(N)N=C(N)N1O: false (0)

Query: Per the assay record, what outcome was assigned to `COc1ccc(S(=O)(=O)NC2CCN(c3ccc(C(F)(F)F)cc3NC(=O)OCC(C)C)CC2)cc1` ?
Response: false (0)

Query: Per the assay record, what outcome was assigned to `COc1ccc(C)c(Nc2ccnc(Nc3cccc(-c4nc5ccccc5[nH]4)c3)n2)c1` ?
Response: false (0)

Query: Per the assay record, what outcome was assigned to `O=C(Nc1cccc(CN2CCCN(CC3CCCCC3)CC2)c1)c1ccc(Cl)c(Cl)c1` ?
Response: false (0)

Query: Per the assay record, what outcome was assigned to `CCc1c[nH]c2c(N3CCCS3(=O)=O)cc(C(=O)N[C@@H](Cc3ccccc3)[C@H](O)CNC3CCCCC3)cc12` ?
Response: true (1)

* * *

molecular target: Calcium-dependent protein kinase 4 (Plasmodium falciparum (isolate 3D7)); test: PfCDPK4 kinase inhibitors, biochemical, TCAMS library (AID 1159588); settings: recombinant PfCDPK4, Kinase-Glo ATP depletion luminescence
Potency and affinity values are given separately. The source made the active and inactive calls. The limit is not given here; nearly all actives have IC50 up to about 0.91 µM.
OUTCOME MEASURE: outcome

The cases that follow already have their outcome on record.
O=C1CCCN1CCCNCc1cccc(-c2cccc(-c3nc4ccc(C(F)(F)F)cc4[nH]3)c2)c1: inactive
COc1ccc(CN2CCC(NCc3ccc(C(F)(F)F)cc3)CC2)cc1: inactive
N/C(=N/C(=NCCCCCCN=C(/N=C(/N)Nc1ccc(Cl)cc1)N1CCOCC1)N1CCOCC1)Nc1ccc(Cl)cc1: inactive
CN(C)c1ccc(C(c2ccc(N(C)C)cc2)c2cc([N+](=O)[O-])ccc2Cl)cc1: inactive
O=C(NCCCCN1CC=C(c2ccc3c(c2OCc2ccccc2)CCCC3)CC1)c1ccc(-c2ccc(C(F)(F)F)cc2)cc1: inactive

Query: For the compound shown here, `Cc1noc(C)c1-c1ccc(C(=C2CCCCCCC2)c2ccc(O)cc2)cc1` , give the reported outcome.
Response: inactive

Query: For the compound shown here, `Cc1cc(I)ccc1Nc1nc2nonc2nc1Nc1ccc(I)cc1C` , give the reported outcome.
Response: inactive

Query: For the compound shown here, `COc1ccc(-c2ccc(NC(=O)c3cccc(F)c3)cc2)cc1CNC(C)C` , give the reported outcome.
Response: inactive

Query: For the compound shown here, CSC1=NC2(CC(c3cccc(C)c3)c3cc(Cl)c(O)cc3O2)CC(C)(C)N1 (centres undefined) , give the reported outcome.
Response: inactive

* * *

assay: human hepatoma cell viability loss – ATP luminescence, cytotoxicity control for P. falciparum antimalarial project, primary screen (AID 2303); details: HepG2 viability, 24-48 h, at 10 µM;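 further: 0% = DMSO wells and 100% = digitonin-killed cells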
Activity calls are given as the source filed them.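 The calls were made as follows: active = inhibition above 50%; inactive = the rest.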
Permitted responses: yes = active, no = inactive

CCCOc1ccc(C(=O)Nc2nonc2-c2ccc(OC)c(OC)c2)cc1: no
N#Cc1nc2ccc(OCCN(Cc3ccccc3C(F)(F)F)c3ccc(C#N)c(C(F)(F)F)c3)cc2s1: no
COc1ccc2nc3cc(Cl)ccc3c(NCCN(C)C)c2c1: no
Nc1nccc2ccc(-c3ccc(OCc4ccccc4)cc3)cc12: no
Cc1cccc2[nH]c(-c3cccc(-c4ccc(NC(=O)CS(C)(=O)=O)cc4)c3)nc12: no
CCc1ccc(C2=Nn3c(nnc3-c3cccs3)SC2)cc1: no

Query: Per the assay record, what outcome was assigned to `O=C(Nc1ccc(N2CCN(C(=O)C=Cc3ccccc3)CC2)c(Cl)c1)c1ccc([N+](=O)[O-])o1` ?
Response: yes

Query: Per the assay record, what outcome was assigned to `Cc1cccc2[nH]c(-c3ccc(-c4cccc(NC(=O)Nc5ccccc5)c4)cc3)nc12` ?
Response: no

Query: Per the assay record, what outcome was assigned to CN(C)CCC(O)C=C(c1ccc(Cl)cc1)c1ccc(Cl)cc1 (centres undefined) ?
Response: no

Query: Per the assay record, what outcome was assigned to `Cc1cc(N[C@@H](Cc2ccccc2)C(=O)NCCOc2ccccc2)nc(NCCc2ccccc2)n1` ?
Response: no

Query: Per the assay record, what outcome was assigned to `CC1CCN(CC[C@H]2CCCN2S(=O)(=O)c2cccc(NC(=O)c3ccc(-c4ccc(Cl)cc4)o3)c2)CC1` ?
Response: no

Query: Per the assay record, what outcome was assigned to COc1cc(C2CCCCC2)c(OC)cc1CC1c2cc(O)c(Cl)cc2CCN1C (centres undefined) ?
Response: no

Query: Per the assay record, what outcome was assigned to `CCCNCc1ccc(-c2ccc(CN(CCOC)C(=O)c3cccc(C#N)c3)cc2)nc1` ?
Response: no

Query: Per the assay record, what outcome was assigned to `COC(=O)c1cccc(CNCc2cccc(-c3cccc(-c4nc5ccc(F)cc5[nH]4)c3)c2)c1` ?
Response: no

Query: Per the assay record, what outcome was assigned to `O=C(NCc1ccccc1)Nc1ccc(-c2ccc(-c3nc4ccc(C(F)(F)F)cc4[nH]3)cc2)cc1` ?
Response: no

Query: Per the assay record, what outcome was assigned to `Cc1cccc2[nH]c(-c3ccc(-c4ccc(CN5CCOCC5)cc4)cc3)nc12` ?
Response: no

Query: Per the assay record, what outcome was assigned to `C[C@H](Cc1ccc(CCc2ccc(C[C@@H](C)NC[C@H](O)c3cccc(Cl)c3)cc2)cc1)NC[C@H](O)c1cccc(Cl)c1` ?
Response: yes

Query: Per the assay record, what outcome was assigned to `NC(=O)c1cnc2cc(-c3ccncc3)cc(Nc3ccc(NC(=O)C4CCCCC4)cc3)c2c1` ?
Response: yes

Query: Per the assay record, what outcome was assigned to `Cc1cccc2[nH]c(-c3ccc(-c4cccc(NC(=O)Cc5cnc[nH]5)c4)cc3)nc12` ?
Response: no

Ref: PubChem BioAssay
